Experiment: total protein half-life in vivo (active degradation + dilution); higher = more stable protein
Settings: wild type E. coli NCM3722; growth: P-lim chemostat; doubling time 6 h
# key: entry, value: total protein half-life in vivo

Some sequences with known total protein half-life in vivo results, for comparison:
>  <INPUT SEQUENCE>
MSHTIRDKQKLKARASKIQGQVVALKKMLDEPHECAAVLQQIAAIRGAVNGLMREVIKGHLTEHIVHQGDELKREEDLDVVLKVLDSYIK

>  <total protein half-life in vivo>
4.14 h

$$$$
>  <INPUT SEQUENCE>
MKKVLIAALIAGFSLSATAAETIRFATEASYPPFESIDANNQIVGFDVDLAQALCKEIDATCTFSNQAFDSLIPSLKFRRVEAVMAGMDITPEREKQVLFTTPYYDNSALFVGQQGKYTSVDQLKGKKVGVQNGTTHQKFIMDKHPEITTVPYDSYQNAKLDLQNGRIDGVFGDTAVVTEWLKDNPKLAAVGDKVTDKDYFGTGLGIAVRQGNTELQQKLNTALEKVKKDGTYETIYNKWFQK

>  <total protein half-life in vivo>
6.04 h

$$$$

Please fill in: total protein half-life in vivo reported for MQQVFFQETEFLNSVIDYDHKVETENLCLDIAYGTDKNFLFGCGISIASILKYNEGSRLCFHIFTDYFGDDDRKYFDALALQYKTRIKIYLINGDRLRSLPSTKNWTHAIYFRFVIADYFINKAPKVLYLDADIICQGTIEPLINFSFPDDKVAMVVTEGQADWWEKRAHSLGVAGIAKGYFNSGFLLINTAQWAAQQVSARAIAMLNEPEIIKKITHPDQDVLNMLLADKLIFADIKYNTQFSLNYQLKESFINPVTNDTIFIHYIGPTKPWHDWAWDYPVSQAFMEAKNASPWKNTALLKPNNSNQLRYSAKHMLKKHRYLKGFSNYLFYFIEKIKH = 5.85 h

Please fill in: total protein half-life in vivo reported for MNMKKLATLVSAVALSATVSANAMAKDTIALVVSTLNNPFFVSLKDGAQKEADKLGYNLVVLDSQNNPAKELANVQDLTVRGTKILLINPTDSDAVGNAVKMANQANIPVITLDRQATKGEVVSHIASDNVLGGKIAGDYIAKKAGEGAKVIELQGIAGTSAARERGEGFQQAVAAHKFNVLASQPADFDRIKGLNVMQNLLTAHPDVQAVFAQNDEMALGALRALQTAGKSDVMVVGFDGTPDGEKAVNDGKLAATIAQLPDQIGAKGVETADKVLKGEKVQAKYPVDLKLVVKQ = 6.05 h

Please fill in: total protein half-life in vivo reported for MSFELPALPYAKDALAPHISAETIEYHYGKHHQTYVTNLNNLIKGTAFEGKSLEEIIRSSEGGVFNNAAQVWNHTFYWNCLAPNAGGEPTGKVAEAIAASFGSFADFKAQFTDAAIKNFGSGWTWLVKNSDGKLAIVSTSNAGTPLTTDATPLLTVDVWEHAYYIDYRNARPGYLEHFWALVNWEFVAKNLAA [P0AGD3] = 5.95 h

Please fill in: total protein half-life in vivo reported for MMYHIPGVLSPQDVARFREQLEQAEWVDGRVTTGAQGAQVKNNQQVDTRSTLYAALQNEVLNAVNQHALFFAAALPRTLSTPLFNRYQNNETYGFHVDGAVRSHPQNGWMRTDLSATLFLSDPQSYDGGELVVNDTFGQHRVKLPAGDLVLYPSSSLHCVTPVTRGVRVASFMWIQSMIRDDKKRAMLFELDNNIQSLKSRYGESEEILSLLNLYHNLLREWSEI = 5.85 h
